Target: Serine/threonine-protein kinase Chk1 (Homo sapiens, UniProt O14757)
Sequence (O14757 whole entry): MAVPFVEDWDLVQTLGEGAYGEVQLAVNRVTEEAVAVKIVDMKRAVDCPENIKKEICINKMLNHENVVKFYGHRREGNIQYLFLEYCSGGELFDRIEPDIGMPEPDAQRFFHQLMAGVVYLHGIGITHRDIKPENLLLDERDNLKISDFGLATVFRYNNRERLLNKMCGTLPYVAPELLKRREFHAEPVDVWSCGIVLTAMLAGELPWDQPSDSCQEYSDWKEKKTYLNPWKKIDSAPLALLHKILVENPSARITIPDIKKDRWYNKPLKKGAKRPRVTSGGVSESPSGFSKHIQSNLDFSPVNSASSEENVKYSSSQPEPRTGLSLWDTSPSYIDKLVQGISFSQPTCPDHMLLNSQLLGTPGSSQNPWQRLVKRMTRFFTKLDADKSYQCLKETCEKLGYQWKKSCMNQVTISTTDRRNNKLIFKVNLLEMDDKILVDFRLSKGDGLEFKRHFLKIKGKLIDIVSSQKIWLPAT
// read-out log10 of IC50, gathered for Serine/threonine-protein kinase Chk1 (Homo sapiens, UniProt O14757) from published studies
The figures below represent log10 of IC50, where IC50 is stated in nM.

log10 of IC50 of NC(=O)c1cnc(N[C@H]2CCCNC2)c2cc(-c3ccc(Oc4ccccc4)cc3)sc12 on Serine/threonine-protein kinase Chk1 (Homo sapiens, UniProt O14757)?
0.60

Given the entry CNc1cc(Nc2cnc(C#N)c(O[C@H](C)CN(C)C)n2)ncc1Cl , what log10 of IC50 was observed with Serine/threonine-protein kinase Chk1 (Homo sapiens, UniProt O14757)?
1.30

Notebook: pull reported log10 of IC50 for Serine/threonine-protein kinase Chk1 (Homo sapiens, UniProt O14757), entry NCCCc1cc2cc[nH]c(=O)c2c2cc(-c3ccc(CN)cc3)ccc12
0.81

Hi! What's the reported log10 of IC50 for NCCCc1cc2c(-c3ccccc3F)c[nH]c(=O)c2c2cc(-c3cn[nH]c3)ccc12 on Serine/threonine-protein kinase Chk1 (Homo sapiens, UniProt O14757)?
0.41

Lab request: please report log10 of IC50 under test system Serine/threonine-protein kinase Chk1 (Homo sapiens, UniProt O14757) for COc1cc(O)ccc1-c1ccc2c(c1)NC(=O)/C2=C\c1cc[nH]c1
1.00

For the record NCCCc1cc2c(-c3cccc(F)c3)c[nH]c(=O)c2c2cc(-c3cn[nH]c3)ccc12 , what value of log10 of IC50 is listed for Serine/threonine-protein kinase Chk1 (Homo sapiens, UniProt O14757)?
0.57

Please state recorded log10 of IC50 (tested on Serine/threonine-protein kinase Chk1 (Homo sapiens, UniProt O14757)) of CS(=O)(=O)N1CCCc2cc(Nc3ncc(C(F)(F)F)c(NCCCN)n3)ccc21
1.46

API: value(readout= log10 of IC50, system= Serine/threonine-protein kinase Chk1 (Homo sapiens, UniProt O14757), query= COc1cc(-c2ccc3[nH]c(=O)c(-c4cc5cc(CN6CCCCC6)ccc5[nH]4)cc3c2)ccc1O )
1.30
